Origin of measurements: a melting point compilation (Tetko et al.; mined from patent text by program, amines drawn as free bases though some values may be those of a salt)

Measured melting point values are reported for all entries that follow.

Compound	melting point
COc1ccc(CN2CC=C(/C=C/c3ccc(C#N)cc3)CC2)cc1	120 to 121 °C
CCNc1ccc(-n2c(C(F)(F)F)nn(C)c2=S)c(Cl)c1	87 to 90 °C
OC(c1cncs1)(c1cncs1)C(F)(F)F	109 to 110 °C
CNCC(C(=O)O)c1ccc(O)cc1 (stereo not given)	218 to 221 °C
CCc1nc2c(N)nc3cccnc3c2n1NCCCNS(C)(=O)=O	176 to 178 °C

CCCN1CCC(=O)C(C(c2ccccc2)c2ccccc2)C1 (stereo not given) yielded melting point of 72 to 76 °C

COc1cc2c(cc1C(=O)Cl)nnn2C(C)=O yielded melting point of 170 °C

O=C(O)CN1C(=O)COc2cc(F)ccc21 yielded melting point of 183 to 184 °C

CCOC(=O)C1=C(COCc2nc(CCN3C(=O)c4ccccc4C3=O)cs2)NC(C)=C(C(=O)OC)C1c1ccccc1Cl (stereo not given) yielded melting point of 156 to 157 °C

O=C1c2cccc3cc4ccccc4c(c23)C(=O)N1CCCNCCNCCCN1C(=O)c2cccc3cc4ccccc4c(c23)C1=O yielded melting point of 180 °C
